biological target: T1, human epidermal growth factor receptor antigen (human, UniProt P00533 25-645, limits assumed); assay: SPR (Biacore T200), 37 C; KD at 10 uM MTX / KD at 0 uM MTX
T1 construct: whole entry named; also called EGFR
Assign Ratio: KD with MTX / KD without MTX to each entry below.

Solved entries:
BINDER	REPORTED RESULT
P05_A11 scFv-Fc fusion (scFv, V domains shown, Tested as scFv-Fc fusion) VH: QVQLVESGGGLVQAGGSLRLSCAASRRSSRSWAMHWVRQAPGKGLEWVAVISYDGRLKYYADSVKGRFTISRDNAEYLVYLQMNSLRAEDTAVYYCAASDDADIFDDYSYGAMDYWGQGTLVTVSS VL: QSVLTQPPSASGTPGQRVTISCSGSSSNIGRNYVYWYQQLPGTAPKLLIYMTSQRPSGVPDRFSGSKSGTSASLAISGLRSEDEADYYCASWDDNLRAWVFGTGTKLTVL	2.5
P14_E03 scFv-Fc fusion (scFv, V domains shown, Tested as scFv-Fc fusion) VH: QVQLVESGGGLVQAGGSLRLSCAASRRSSRSWAMHWVRQAPGKGLEWVAVISYDGRLKYYADSVKGRFTISRDNAEYLVYLQMNSLRAEDTAVYYCAAAPRVDWSDVSSGIDYWGQGTLVTVSS VL: QSVLTQPPSASGTPGQRVTISCSGSISNIGTNNVYWYQQLPGTAPKLLIYRNNQRPSGVPDRFSGSKSGTSASLAISGLRSEDEADYYCSAWDDSLSGVVFGTGTKLTVL	3.9
P01_F02 scFv-Fc fusion (scFv, V domains shown, Tested as scFv-Fc fusion) VH: QVQLVESGGGLVQAGGSLRLSCAASRRSSRSWAMHWVRQAPGKGLEWVAVISYDGRLKYYADSVKGRFTISRDNAEYLVYLQMNSLRAEDTAVYYCAADVESALAYGEPYHHMDVWGQGTLVTVSS VL: QSVLTQPPSASGTPGQRVTISCSGSSSNIGRNYVYWYQQLPGTAPKLLIYRTSQRPSGVPDRFSGSKSGTSASLAISGLRSEDEADYYCATWDDSLSGWVFGTGTKLTVL	> 50

Task item: For P01_B06 scFv-Fc fusion (scFv, V domains shown, Tested as scFv-Fc fusion) VH: QVQLVESGGGLVQAGGSLRLSCAASRRSSRSWAMHWVRQAPGKGLEWVAVISYDGRLKYYADSVKGRFTISRDNAEYLVYLQMNSLRAEDTAVYYCAADTSMFASYDPMDVWGQGTLVTVSS VL: QSVLTQPPSASGTPGQRVTISCSGSSSNIGRNYVNWYQQLPGTAPKLLIYRDDHRPSGVPDRFSGSKSGTSASLAISGLRSEDEADYYCASWDDTLSGWVFGTGTKLTVL , write its Ratio: KD with MTX / KD without MTX.
Reply: 1.1

Hello, the source for this data is patent US20230192839A1, in case you need it.
